System: Enterococcus hirae ATCC 10541
Assay: Minimum Inhibitory Concentration (MIC) in the agar incorporation test
Type: cell-based
Conditions: ATCC10541
MIC: recorded values
The reply should be a number in µg/mL, with the unit left off.

{"SMILES REPR": "C[Si](C)(C)O[Si](C)(C)O[Si](C)(C)CCCc1ccccc1O", "TEST SYSTEM": "Enterococcus hirae ATCC 10541", "MIC, µg/mL": 15.6}
{"SMILES REPR": "C[Si](C)(C)O[Si](C)(C)CCCc1ccccc1O", "TEST SYSTEM": "Enterococcus hirae ATCC 10541", "MIC, µg/mL": 15.6}

Consider now this further compound.
# input // output MIC; input C[Si](C)(CCCc1ccccc1O)c1ccccc1 ; system Enterococcus hirae ATCC 10541
# output 3.9
